Measured % reduction of adult worms growth at day 49 after per os application of 400 mg/kg, TWR (%) by item
# Tested on: Schistosoma mansoni adult worms (49-day-old)
# test protocol: Effect on adult schistosomes (49-day-old) in infected mice
# Type: in vivo
# reported conditions: single 400 mg/kg per os, 49-day-old adults; total worm reduction rate
# Description: Mice were infected with 100 Schistosoma mansoni cercariae on day 49 post-treatment. Each group was treated per os with OZ compounds at single doses of 200, 400, and 600 mg/kg. Untreated mice served as the control. All groups were killed 4 weeks after treatment and the liver and intestine were removed and separated. The liver and intestine were compressed and alive male and female worms could be seen and counted.

Below are worked cases with known answers.
# compound, meas value
records = [
    ("CC(C)(N)CNC(=O)C[C@H]1CC[C@]2(CC1)OO[C@]1(O2)C2CC3CC(C2)CC1C3 [OZ277]", "0/0%"),
    ("c1ccc2c(c1)COC1(CCC3(CC1)OOC1(O3)C3CC4CC(C3)CC1C4)OC2 (stereo not shown) [OZ31]", "4/4%"),
    ("C1C2CC3CC1CC(C2)C31OOC2(O1)C1CC3CC(C1)CC2C3 (stereo not shown) [OZ04]", "0/0%"),
]

Notebook: C1CCC2(CC1)OOC1(O2)C2CC3CC(C2)CC1C3 (stereo not shown) [OZ03] , % reduction of adult worms growth at day 49 after per os application of 400 mg/kg, TWR (%) read as 29%

Notebook: O=C1CCC2(CCO1)OOC1(O2)C2CC3CC(C2)CC1C3 (stereo not shown) [OZ17] , % reduction of adult worms growth at day 49 after per os application of 400 mg/kg, TWR (%) read as 0%

Notebook: C1CCCCCC2(CCCCC1)OOC1(O2)C2CC3CC(C2)CC1C3 (stereo not shown) [OZ20] , % reduction of adult worms growth at day 49 after per os application of 400 mg/kg, TWR (%) read as 0/0%

Notebook: CC(C)(N)C(=O)NC[C@H]1CC[C@]2(CC1)OOC1(O2)C2CC3CC(C2)CC1C3 (stereo partly shown) [OZ281] , % reduction of adult worms growth at day 49 after per os application of 400 mg/kg, TWR (%) read as 12%

Notebook: Cc1ccc(S(=O)(=O)O)cc1.O=C(C[C@H]1CC[C@]2(CC1)OO[C@]1(O2)C2CC3CC(C2)CC1C3)N1CCNCC1 [OZ279] , % reduction of adult worms growth at day 49 after per os application of 400 mg/kg, TWR (%) read as 0%
